I'd appreciate it if you could supply IC50 values for the items below.
target: IGFR kinase (Homo sapiens); construct: purchased Millipore; assay: Enzyme assay (c), IGFR kinase, Caliper LabChip; format: biochemical; conditions: 30 nM IGFR kinase, 6 uM ATP, 3 uM peptide mix; read-out: IGFR IC50
All answers are understood in nM, so give the number only.

Req: Given the entry `COc1cc(N2CCN(C(=O)[C@@H]3CCCCN3)CC2)ccc1Nc1ncc(Cl)c(-c2cnc3ccccn23)n1` , report its measured IC50.
Resp: 6

Req: What do you have for `COc1cc(C2CCN(C(C)=O)CC2)ccc1Nc1ncc(C)c(-c2cnn3ccccc23)n1` ?
Resp: 9

Req: Let us now turn to `COc1cc(C2CCN(C(C)=O)CC2)ccc1Nc1ncc(C2CC2)c(-c2cnc3c(F)cccn23)n1`
Resp: 96

Req: Request: `COc1cc(C)c(Nc2ncc(Br)c(-c3cnc4ccccn34)n2)cc1OC`
Resp: 31

----------
molecular target: IGFR kinase (Homo sapiens, UniProt P08069); construct: purchased Millipore; experiment: Enzyme assay (c), IGFR kinase, Caliper LabChip; type: biochemical; conditions: 30 nM IGFR kinase, 6 uM ATP, 3 uM peptide mix; read-out: IGFR IC50
Sequence (P08069 31-1367): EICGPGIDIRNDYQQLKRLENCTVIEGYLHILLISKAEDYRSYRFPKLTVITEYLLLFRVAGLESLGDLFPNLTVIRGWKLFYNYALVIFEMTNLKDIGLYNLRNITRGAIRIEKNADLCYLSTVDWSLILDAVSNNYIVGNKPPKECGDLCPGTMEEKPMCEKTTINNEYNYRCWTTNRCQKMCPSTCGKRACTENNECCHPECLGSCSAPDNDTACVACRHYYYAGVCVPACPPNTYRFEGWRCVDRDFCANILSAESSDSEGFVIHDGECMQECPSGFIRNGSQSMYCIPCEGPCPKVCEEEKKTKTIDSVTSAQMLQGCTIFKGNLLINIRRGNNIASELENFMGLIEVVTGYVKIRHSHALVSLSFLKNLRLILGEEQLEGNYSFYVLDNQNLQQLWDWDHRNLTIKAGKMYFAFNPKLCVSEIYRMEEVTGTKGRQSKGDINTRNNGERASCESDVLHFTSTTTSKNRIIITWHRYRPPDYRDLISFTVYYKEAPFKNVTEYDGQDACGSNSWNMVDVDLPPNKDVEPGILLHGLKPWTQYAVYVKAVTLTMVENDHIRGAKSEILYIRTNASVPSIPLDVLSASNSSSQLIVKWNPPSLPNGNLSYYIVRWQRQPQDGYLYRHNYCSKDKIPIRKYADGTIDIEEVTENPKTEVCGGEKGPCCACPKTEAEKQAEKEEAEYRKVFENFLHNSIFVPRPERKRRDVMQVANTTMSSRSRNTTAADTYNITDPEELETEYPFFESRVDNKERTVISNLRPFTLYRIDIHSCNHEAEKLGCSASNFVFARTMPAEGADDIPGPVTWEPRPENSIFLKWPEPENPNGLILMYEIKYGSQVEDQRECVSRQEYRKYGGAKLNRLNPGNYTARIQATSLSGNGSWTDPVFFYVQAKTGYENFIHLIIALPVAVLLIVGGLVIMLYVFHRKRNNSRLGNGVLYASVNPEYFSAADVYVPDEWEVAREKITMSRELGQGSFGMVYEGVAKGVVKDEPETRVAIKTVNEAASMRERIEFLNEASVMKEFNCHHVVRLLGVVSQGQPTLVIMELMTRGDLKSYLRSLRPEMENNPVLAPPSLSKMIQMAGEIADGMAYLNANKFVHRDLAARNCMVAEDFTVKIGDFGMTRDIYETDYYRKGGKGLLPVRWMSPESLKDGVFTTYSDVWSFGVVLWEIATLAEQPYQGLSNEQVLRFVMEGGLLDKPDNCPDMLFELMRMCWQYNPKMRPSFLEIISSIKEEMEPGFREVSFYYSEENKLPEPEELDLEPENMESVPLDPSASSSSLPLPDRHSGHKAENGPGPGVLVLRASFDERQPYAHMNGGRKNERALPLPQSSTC
Hi! Could you tag entries with IC50 below 20 nM as MET, and those at or above as NOT MET? Much appreciated.

Req: Quick check: IC50 of `CNC(=O)C1CCN(c2ccc(Nc3ncc(Cl)c(-c4cnc5c(F)cccn45)n3)c(OC)c2)CC1` under 20 nM?
Resp: MET

Req: And for `CNC(=O)CN(C)c1ccc(Nc2ncc(Cl)c(-c3cnc4c(F)cccn34)n2)c(OC)c1` ?
Resp: NOT MET

Req: Next entry: `COc1cc(N2CC3CN(C(CO)CO)CC(C2)O3)ccc1Nc1ncc(Cl)c(-c2cnn3ccccc23)n1`
Resp: NOT MET

Req: // same read-out, input: `COc1cc(N2CCN(CCO)CC2)ccc1Nc1ncc(OC)c(-c2cnc3ccccn23)n1`
Resp: NOT MET

Req: Another compound: `COc1cc(O[C@H]2CCNC2)ccc1Nc1ncc(Cl)c(-c2cnc3ccccn23)n1`
Resp: MET

Req: Proceed to COc1cc(N2CCN(C(C)CO)CC2)ccc1Nc1ncc(C)c(-c2cnc3ccccn23)n1 (stereo not shown)
Resp: MET

Req: Please give the result for `COc1cc(CN2CCC2)ccc1Nc1ncc(Cl)c(-c2cnc3ccccn23)n1` too.
Resp: MET

Req: Same for `COc1ccc(OC[C@@H]2CCCN2)cc1Nc1ncc(Cl)c(-c2cnc3ccccn23)n1`
Resp: MET

Req: Now consider COc1cc(N2CCN(C(=O)C3CCC(=O)N3)CC2)ccc1Nc1ncc(Cl)c(-c2cnc3ccccn23)n1 (stereo not shown) .
Resp: MET

Req: Now try `COc1cc(CN2CCC[C@H](O)C2)ccc1Nc1ncc(Cl)c(-c2cnc3ccccn23)n1` .
Resp: NOT MET

Req: Another: `COc1cc(N2CC3CN(C(=O)CN(C)C)CC(C2)O3)ccc1Nc1ncc(Cl)c(-c2cnc3c(F)cccn23)n1`
Resp: MET

Req: Queued: `COc1cc(OC2CN(C(=O)C3(O)CC3)C2)ccc1Nc1ncc(Cl)c(-c2cnc3ccccn23)n1`
Resp: NOT MET

Req: Also check `COc1cc(O[C@@H]2CCNC2)ccc1Nc1ncc(Cl)c(-c2cnc3ccccn23)n1`
Resp: MET

Req: Ok, now COc1cc(N2CC(C)N(C(C)=O)C(C)C2)ccc1Nc1ncc(Cl)c(-c2cnc3ccccn23)n1 (stereo not shown)
Resp: MET

Req: Now consider `COc1ccc(N2CC[C@@H](N(C)C)C2)cc1Nc1ncc(Cl)c(-c2cnc3ccccn23)n1` and answer again.
Resp: NOT MET

Req: And the next one, `COc1cc(N2CCN(C[C@@H](C)O)CC2)ccc1Nc1ncc(F)c(-c2cnc3ccccn23)n1` ?
Resp: NOT MET
